B1: TPR t1 (parent)
chain: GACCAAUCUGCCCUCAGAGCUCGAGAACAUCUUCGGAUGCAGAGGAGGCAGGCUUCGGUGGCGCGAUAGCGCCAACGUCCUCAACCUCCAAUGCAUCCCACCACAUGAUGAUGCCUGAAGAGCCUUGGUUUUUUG

Variants of: B1
method_description: polymerase ribozyme fitness, log enrichment relative to wild type (log ratio); higher = more active; in vitro selection for triplet polymerase activity
I'd appreciate it if you could supply polymerase ribozyme fitness (log ratio) values for the items below.
Numbers only.

A selection of reference data follows.
variant_spec="G61U G77C A119U" endpoint_value=-1.73
variant_spec="C3U U78C U87G" endpoint_value=-0.313
variant_spec="C49G G93A" endpoint_value=-1.26
variant_spec="A50C G63U U81A" endpoint_value=-1.63
variant_spec="A43U C73A" endpoint_value=-1.5
variant_spec="G61C C73U C85U G117A U129C" endpoint_value=-5.49
variant_spec="A50C G107U" endpoint_value=-5.95
variant_spec="C3G A50C C73A A95U" endpoint_value=-2.64

# return polymerase ribozyme fitness (log ratio) for each item in the list
1. A29G G51U U55A G57U
2. G45U G52U
3. A37U A75U G120C
4. U32A U33C G77C C102G G107A A121G
5. G52A G71A U96G
6. A6U A90U C114A U116G
7. U106G A119G

Output:
1. -3.55
2. -2.65
3. 1.14
4. -7.93
5. -1.57
6. -3.49
7. 0.3

# return polymerase ribozyme fitness (log ratio) for each item in the list
1. A43U G61C
2. U54A A119G
3. U32C G42A G69U
4. A27U G60U G61C
5. C12G U21C A29U C123U U131A

Output:
-4.42
0.648
-0.00577
-5.43
-1.87

# return polymerase ribozyme fitness (log ratio) for each item in the list
1. U87G U109A
2. C8U C62U U87A A121U
3. C85G C99U
4. C11U G113C
5. C12G C62U U116A
6. C79U C114A

Output:
-3.08
1.89
-4.35
-2.55
-2.68
-0.742

# return polymerase ribozyme fitness (log ratio) for each item in the list
1. A66U A84U C89U U112G
2. C53U U59G
3. C12U G120U
4. C101U G117C
5. C3U G45C
6. C15U A18C
7. A18C G60C
8. A95C U106A C124U

Output:
1: -2.3; 2: -0.253; 3: 2.06; 4: -3.39; 5: -2.34; 6: -3.52; 7: -2.9; 8: 1.29
